# TESTED_TARGET: TNFα converting enzyme (Homo sapiens, UniProt P78536)
# Construct: Membrane preparation from MonoMac 6 cells; endogenous in cells
# Sequence (P78536 215-824): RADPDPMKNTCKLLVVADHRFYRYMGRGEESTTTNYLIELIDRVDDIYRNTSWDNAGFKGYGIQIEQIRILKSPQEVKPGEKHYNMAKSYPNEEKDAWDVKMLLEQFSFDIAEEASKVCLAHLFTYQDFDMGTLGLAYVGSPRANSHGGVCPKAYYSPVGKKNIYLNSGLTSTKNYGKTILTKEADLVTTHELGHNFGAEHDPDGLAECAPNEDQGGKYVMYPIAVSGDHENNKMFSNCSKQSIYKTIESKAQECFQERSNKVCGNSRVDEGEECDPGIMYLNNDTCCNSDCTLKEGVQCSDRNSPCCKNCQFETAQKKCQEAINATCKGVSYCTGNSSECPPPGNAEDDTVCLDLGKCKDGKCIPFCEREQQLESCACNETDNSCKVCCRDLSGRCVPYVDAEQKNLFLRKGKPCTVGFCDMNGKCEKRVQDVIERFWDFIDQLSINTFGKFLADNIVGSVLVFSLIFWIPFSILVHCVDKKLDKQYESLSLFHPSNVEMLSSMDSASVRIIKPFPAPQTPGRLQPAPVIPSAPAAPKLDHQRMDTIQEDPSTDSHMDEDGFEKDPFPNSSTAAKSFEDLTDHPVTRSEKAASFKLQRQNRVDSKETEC
# ASSAY_NAME: TNFα Converting Enzyme Inhibition Protocol
# CONDITION_SET: cell-free, MonoMac 6 membrane preparation; IC50 equivalent to Ki at [S]<<Km
pKi: −log10 of the molar value.
READOUT_KIND: pKi

Below are worked cases with known answers.
CC(C)(C)[C@H](NC(=O)[C@H](CCCc1ccccc1)[C@H](CCC(F)(F)F)N(O)C=O)C(=O)Nc1nccs1 [Example 183]; 6.30 to 7.00
CCC[C@@H]([C@@H](CC(C)Cc1ccccc1)C(=O)N[C@H](C(=O)Nc1nccs1)C(C)(C)SCCNC(=O)OCc1ccccc1)N(O)C=O (stereo partly drawn) [Example 7]; 6.30 to 7.00
CCC[C@@H]([C@@H](CCCc1ccoc1)C(=O)N[C@@H](CCCCNC(=O)OCc1ccccc1)C(=O)Nc1nccs1)N(O)C=O [Example 4]; > 7.00

pKi reading for C[C@@H]([C@@H](CC1CCC(c2ccccc2)CC1)C(=O)N[C@H](C(=O)Nc1nccs1)C(C)(C)C)N(O)C=O (stereo partly drawn) [Example 2] : > 7.00

C[C@@H]([C@@H](CCCc1ccccc1)C(=O)N[C@H](C(=O)Nc1cccnc1)C(C)(C)C)N(O)C=O [Example 1] has a reported pKi of 6.00 to 6.30

Please fill in: pKi reported for C[C@@H]([C@@H](CCCc1ccc(Cl)cc1)C(=O)N[C@H](C(=O)Nc1cccnc1)C(C)(C)C)N(O)C=O [Example 195] = < 6.00

Record CCC[C@@H]([C@H](COCc1ccccc1)C(=O)N[C@@H](CCCCNC(=O)OCc1ccccc1)C(=O)Nc1nccs1)N(O)C=O [Example 6] , field pKi: > 7.00

Reported pKi for CCC[C@@H]([C@@H](CCCc1ccccc1)C(=O)N[C@@H](CCCCNC(=O)OCc1ccccc1)C(=O)Nc1nncs1)N(O)C=O [Example 3] was > 7.00

Reported pKi for CCC[C@@H]([C@@H](CC(C)Cc1ccccc1)C(=O)N[C@H](C(=O)Nc1nccs1)C(C)(C)C)N(O)C=O (stereo partly drawn) [Example 8] was > 7.00
